Listed binders paired with reported fold change of affinity for CD137
# EXPERIMENTAL TARGET: T1, Human CD137 ECD (human)
# T1 construct: also called human CD137 extracellular domain; hCD137
# T1 sequence (chain, as listed by the source limits assumed): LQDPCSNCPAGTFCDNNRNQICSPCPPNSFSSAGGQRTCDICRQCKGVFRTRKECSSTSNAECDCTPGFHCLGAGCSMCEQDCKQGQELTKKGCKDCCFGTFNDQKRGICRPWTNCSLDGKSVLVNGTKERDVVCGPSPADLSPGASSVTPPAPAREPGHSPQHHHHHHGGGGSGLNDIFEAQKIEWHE
# MEASUREMENT NOTES: SPR (Biacore), affinity of single-mutation variant against parental H183/L072
ASSAY METRIC: fold change of affinity for CD137

1. Dual-Fab H183/L072 variant with single light chain mutation V94Y (Kabat) (antibody, name in Kabat numbering, V domains shown, expressed as an antibody in Expi293 and purified on Protein A; also called dBBDu183H / dBBDu072L V94Y) VH: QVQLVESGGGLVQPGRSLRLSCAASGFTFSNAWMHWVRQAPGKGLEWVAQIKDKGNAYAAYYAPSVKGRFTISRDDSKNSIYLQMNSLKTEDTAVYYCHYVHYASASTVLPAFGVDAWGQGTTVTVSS VL: DIVMTQSPLSLPVTPGEPASISCQASQELVHMNRNTYLHWYQQKPGQAPRLLIYKVSNRFPGVPDRFSGSGSGTDFTLKISRVEAEDVGVYYCAQGTSYPFTFGQGTKLEIK	0.1 fold
2. Dual-Fab H183/L072 variant with single light chain mutation F96Y (Kabat) (antibody, name in Kabat numbering, V domains shown, expressed as an antibody in Expi293 and purified on Protein A; also called dBBDu183H / dBBDu072L F96Y) VH: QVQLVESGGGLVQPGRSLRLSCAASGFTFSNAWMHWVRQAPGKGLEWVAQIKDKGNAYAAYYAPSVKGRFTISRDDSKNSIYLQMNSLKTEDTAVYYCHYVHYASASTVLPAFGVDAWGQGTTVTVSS VL: DIVMTQSPLSLPVTPGEPASISCQASQELVHMNRNTYLHWYQQKPGQAPRLLIYKVSNRFPGVPDRFSGSGSGTDFTLKISRVEAEDVGVYYCAQGTSVPYTFGQGTKLEIK	0.6 fold
3. Dual-Fab H183/L072 variant with single light chain mutation S52Y (Kabat) (antibody, name in Kabat numbering, V domains shown, expressed as an antibody in Expi293 and purified on Protein A; also called dBBDu183H / dBBDu072L S52Y) VH: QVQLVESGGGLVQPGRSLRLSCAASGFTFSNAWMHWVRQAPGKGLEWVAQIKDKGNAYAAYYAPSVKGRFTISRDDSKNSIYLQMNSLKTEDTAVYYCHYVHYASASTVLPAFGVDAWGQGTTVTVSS VL: DIVMTQSPLSLPVTPGEPASISCQASQELVHMNRNTYLHWYQQKPGQAPRLLIYKVYNRFPGVPDRFSGSGSGTDFTLKISRVEAEDVGVYYCAQGTSVPFTFGQGTKLEIK	1.2 fold
4. Dual-Fab H183/L072 variant with single light chain mutation T97Y (Kabat) (antibody, name in Kabat numbering, V domains shown, expressed as an antibody in Expi293 and purified on Protein A; also called dBBDu183H / dBBDu072L T97Y) VH: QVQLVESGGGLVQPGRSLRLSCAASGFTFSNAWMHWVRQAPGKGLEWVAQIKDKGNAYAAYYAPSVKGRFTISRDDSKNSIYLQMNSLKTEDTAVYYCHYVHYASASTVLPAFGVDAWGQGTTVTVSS VL: DIVMTQSPLSLPVTPGEPASISCQASQELVHMNRNTYLHWYQQKPGQAPRLLIYKVSNRFPGVPDRFSGSGSGTDFTLKISRVEAEDVGVYYCAQGTSVPFYFGQGTKLEIK	0.3 fold
5. Dual-Fab H183/L072 variant with single light chain mutation K50Y (Kabat) (antibody, name in Kabat numbering, V domains shown, expressed as an antibody in Expi293 and purified on Protein A; also called dBBDu183H / dBBDu072L K50Y) VH: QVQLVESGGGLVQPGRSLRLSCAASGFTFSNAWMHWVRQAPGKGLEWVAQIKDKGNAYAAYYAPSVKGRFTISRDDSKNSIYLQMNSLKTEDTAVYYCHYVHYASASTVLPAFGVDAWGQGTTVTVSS VL: DIVMTQSPLSLPVTPGEPASISCQASQELVHMNRNTYLHWYQQKPGQAPRLLIYYVSNRFPGVPDRFSGSGSGTDFTLKISRVEAEDVGVYYCAQGTSVPFTFGQGTKLEIK	0 fold
